Reported property: melting point

Entry COC(=O)c1sc2c(C(F)(F)F)cc(C(F)(F)F)cc2c1NC(C)c1ncnn1-c1ccc(C#N)cn1 (stereo not shown) [P5] ; melting point = 195 to 197 °C

Entry CC(Nc1noc2ccc(Br)cc12)c1ncnn1-c1ccc(C#N)cn1 (stereo not shown) [P16] ; melting point = 175 to 177 °C

Entry CC(Nc1noc2c(Cl)cc(C(F)(F)F)cc12)c1nc(Br)nn1-c1ncccn1 (stereo not shown) [P9] ; melting point = 160 to 163 °C

Entry CC(Nc1nn(C)c2c(Cl)cc(C(F)(F)F)cc12)c1nc(Br)nn1-c1ncccn1 (stereo not shown) [P11] ; melting point = 262 to 264 °C

---

Form field: melting point (one value per entry).

compound="CC(Nc1noc2ccc(Br)cc12)c1ncnn1-c1ncccn1 (stereo not drawn) [P17]" reported_property="melting point" result="233 to 235 °C"
compound="CC(Nc1noc2c(F)cc(F)cc12)c1nccnc1-n1nccn1 (stereo not drawn) [P13]" reported_property="melting point" result="199 to 201 °C"

Next, consider the following compound.
Entry CC(Nc1c(C#N)sc2c(C(F)(F)F)cc(C(F)(F)F)cc12)c1ncnn1-c1ccc(C#N)cn1 (stereo not drawn) [P4] ; melting point = 192 to 194 °C
